// provenance: patent US20220204611A1

# Lookup of reported sandwich binding signal keyed by entry
Target: T1, recombinant soluble human TREM2 protein (human TREM2 ECD-FlagHis) (human, UniProt Q9NZC2 19-174)
T1 sequence: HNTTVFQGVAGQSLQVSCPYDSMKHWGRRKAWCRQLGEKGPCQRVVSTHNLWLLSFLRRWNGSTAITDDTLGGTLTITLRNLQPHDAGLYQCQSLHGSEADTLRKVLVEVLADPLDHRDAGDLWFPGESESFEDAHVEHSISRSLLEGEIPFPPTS
Assay: Octet BLI binning; competitor: load Ab 26C10
Procedure: Each of sixteen different anti-TREM2 antibodies produced from hybridomas were quantitated and loaded onto one of the anti-human Fc sensors at 5 μg/mL for 2 minutes (“Load Antibody”). The sensor was then blocked with 100 μg/mL of an irrelevant human IgG2 antibody for 5 minutes. […] Next, each of the sixteen different anti-TREM2 antibodies (“Sandwich Antibody”) was added to the sensor at 5 μg/mL and allowed to bind for 5 minutes. […]
Answer with a number only.

Example results:
binder	sandwich binding signal
6E7 (antibody, human IgG2, V domains shown, human IgG2 from hybridoma) VH: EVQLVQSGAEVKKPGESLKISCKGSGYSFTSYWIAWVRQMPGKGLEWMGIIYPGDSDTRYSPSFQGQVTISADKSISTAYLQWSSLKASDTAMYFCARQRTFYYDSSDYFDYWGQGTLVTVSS VL: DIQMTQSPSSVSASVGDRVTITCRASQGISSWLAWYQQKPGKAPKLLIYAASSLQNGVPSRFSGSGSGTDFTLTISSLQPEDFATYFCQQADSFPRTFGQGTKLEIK	0.472
5E3 (antibody, human IgG2, V domains shown, human IgG2 from hybridoma) VH: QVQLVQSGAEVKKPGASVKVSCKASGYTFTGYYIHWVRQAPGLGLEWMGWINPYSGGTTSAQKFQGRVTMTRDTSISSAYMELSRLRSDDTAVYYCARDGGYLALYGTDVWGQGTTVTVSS VL: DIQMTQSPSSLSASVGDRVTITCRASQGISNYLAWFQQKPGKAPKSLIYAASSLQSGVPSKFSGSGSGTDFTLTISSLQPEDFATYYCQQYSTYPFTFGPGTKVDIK	-0.073

With those in mind, consider the next binder.
Incoming: Recorded sandwich binding signal of 26C10 (antibody, human IgG2, V domains shown, human IgG2 from hybridoma) VH: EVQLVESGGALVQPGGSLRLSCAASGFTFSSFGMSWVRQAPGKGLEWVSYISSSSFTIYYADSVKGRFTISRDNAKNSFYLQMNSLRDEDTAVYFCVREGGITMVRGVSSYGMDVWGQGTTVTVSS VL: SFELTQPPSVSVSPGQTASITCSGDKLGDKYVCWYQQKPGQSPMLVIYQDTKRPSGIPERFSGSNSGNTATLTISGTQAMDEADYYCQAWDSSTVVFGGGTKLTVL , please.
Outgoing: -0.032
